B1: scFv; the commonest letter at each place (parent)
chain 1: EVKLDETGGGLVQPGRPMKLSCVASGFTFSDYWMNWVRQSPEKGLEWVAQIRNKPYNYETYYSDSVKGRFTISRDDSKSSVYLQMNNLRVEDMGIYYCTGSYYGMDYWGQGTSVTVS
chain 2: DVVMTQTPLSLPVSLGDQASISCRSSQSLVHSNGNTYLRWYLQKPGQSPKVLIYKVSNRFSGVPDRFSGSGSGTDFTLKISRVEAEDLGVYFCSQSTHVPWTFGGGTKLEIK

variants of: B1; assay: Kd (Tite-Seq); conditions: with fluorescein; format: scFv 4-4-20, heavy + light
property: Kd

For orientation, consider the following solved cases.
chain 1 Y32Q W36N V37K; ≥ 10 µM
chain 1 Y107E G109E; ≥ 10 µM
chain 1 Y103C M105I; 6.27 µM

Problem: Entry chain 1 S101P Y107F W108F needs its Kd filled in; supply it.
Solution: ≥ 10 µM

Problem: Annotate the variant chain 1 W33H M34R V37T with its measured Kd.
Solution: ≥ 10 µM

Problem: Given chain 1 F29A V37S , respond with its Kd.
Solution: ≥ 10 µM

Problem: # return recorded Kd for entry chain 1 S101T D106Q
Solution: ≥ 10 µM

Problem: Specify measured Kd for chain 1 G100I W108R .
Solution: ≥ 10 µM
